The following molecules each carry a recorded IC50 for GRK5 (Homo sapiens, UniProt P34947).

MOLECULE | SUBJECT OF TEST | IC50
COc1ccc([C@@H](C)NC(=O)/C=C/c2c[nH]c3nccc(-c4ccc(CN5CCOCC5)cc4)c23)cc1OC [Example 232] | GRK5 (Homo sapiens, UniProt P34947) | 50 to 100 nM

Asked: Reported IC50, molecule COc1ccc([C@@H](C)NC(=O)/C(C#N)=C/c2c[nH]c3ncc(-c4ccccc4OC)cc23)cc1OC [Example 124] : ____
Given back: 100 to 500 nM

Asked: Could you do the same for COc1ccc([C@@H](C)NC(=O)/C(C#N)=C/c2c[nH]c3ncc(-c4ccccc4CN(C)C)cc23)cc1OC [Example 136] , please?
Given back: 100 to 500 nM

Asked: Field entry: COc1ccc([C@@H](C)NC(=O)/C=C/c2c[nH]c3ncc(-c4cccc(N5CCN(C)CC5)c4)cc23)cc1OC [Example 185]
Given back: ≤ 50 nM

Asked: Please answer likewise for COc1ccc([C@@H](C)NC(=O)/C=C/c2c[nH]c3ncc(OC4CCS(=O)(=O)CC4)cc23)cc1OC [Example 55]
Given back: ≤ 50 nM

Asked: Check N#C/C(=C\c1c[nH]c2ncccc12)C(=O)NCc1ccccc1CN1CCCC1=O [Example 44] too.
Given back: 1000 to 10000 nM

Asked: Entry to check: COc1ccc([C@@H](C)NC(=O)/C=C/c2c[nH]c3ncc(-c4cccc(S(=O)(=O)C5CC5)c4)cc23)cc1OC [Example 216]
Given back: ≤ 50 nM
